- measured target: K2P2.1 (TREK-1) (Mus musculus, UniProt P97438)
- Construct: expressed in transfected cells; host or cells: Xenopus laevis oocytes injected with mRNA (pGEMHE/pMO vector)
- Sequence (P97438 1-411 isoform P97438-2): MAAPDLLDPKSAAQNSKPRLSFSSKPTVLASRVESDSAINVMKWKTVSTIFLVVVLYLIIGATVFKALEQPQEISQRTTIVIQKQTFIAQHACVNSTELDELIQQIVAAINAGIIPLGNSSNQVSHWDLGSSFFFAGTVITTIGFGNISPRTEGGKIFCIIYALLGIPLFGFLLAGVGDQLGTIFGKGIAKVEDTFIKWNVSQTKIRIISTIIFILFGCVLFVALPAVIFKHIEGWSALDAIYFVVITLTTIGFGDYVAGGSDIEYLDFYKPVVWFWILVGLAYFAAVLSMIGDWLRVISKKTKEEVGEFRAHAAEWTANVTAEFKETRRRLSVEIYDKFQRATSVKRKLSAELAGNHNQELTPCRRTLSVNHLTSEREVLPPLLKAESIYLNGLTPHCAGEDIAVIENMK
- protocol text: Two-electrode voltage clamp (TEVC) in Xenopus oocytes
- Format: cell-based
- cond: 20 uM; oocytes expressing TREK1
measurement name: TREK-1 fold-activation (fold)

{"molecule": "CC(NC(=O)c1ccc(NC(=O)NC(=O)C(Cl)(Cl)Cl)cc1)c1ccc(Cl)cc1Cl (stereo not drawn)", "measured target": "K2P2.1 (TREK-1) (Mus musculus, UniProt P97438)", "unit of measurement": "fold", "test value": 1.2}

1 = CC(NC(=O)c1ccc(NS(C)(=O)=O)cc1)c1ccc(Cl)cc1Cl (stereo not drawn)
2 = C#CCNC(=O)CC(=C)C(=O)Nc1ccc(C(=O)NCc2ccc(Cl)cc2Cl)cc1
[ask] Given the listed items, does 1 or 2 have the lesser reported TREK-1 fold-activation? // caller expects the label of the chosen entry
[reply] 1
(1: 1.2 fold, 2: 7.0 fold)

---

- measured target: K2P2.1 (TREK-1) (Mus musculus)
- Construct: expressed in transfected cells; host or cells: Xenopus laevis oocytes injected with mRNA (pGEMHE/pMO vector)
- protocol text: Two-electrode voltage clamp (TEVC) in Xenopus oocytes
- Format: cell-based
- cond: 20 uM; oocytes expressing TREK1
measurement name: TREK-1 fold-activation (fold)

{"compound": "CS(=O)(=O)Nc1ccc(C(=O)NCc2ccc(Cl)c(F)c2)cc1", "measurement name": "TREK-1 fold-activation", "test value": 1.5}
{"compound": "Cc1cc(Cl)cc(Cl)c1CNC(=O)c1ccc(NS(C)(=O)=O)cc1", "measurement name": "TREK-1 fold-activation", "test value": 1.1}
{"compound": "C=CC(=O)Nc1cccc(C(=O)NCc2ccc(Cl)cc2Cl)c1", "measurement name": "TREK-1 fold-activation", "test value": 1.2}

P = C/C=C/C(=O)Nc1ccc(C(=O)NCc2ccc(Cl)cc2Cl)cc1
Q = N#CCC(=O)Nc1ccc(C(=O)NCc2ccc(Cl)cc2Cl)cc1
[ask] Given the listed items, does P or Q have the lesser reported TREK-1 fold-activation? // caller expects the label of the chosen entry
[reply] P
(P: 1.2 fold, Q: 3.6 fold)

1 = CC1(C)OB(Cc2ccc(C(=O)NCc3ccc(Cl)cc3Cl)cc2)OC1(C)C
2 = CN(Cc1ccc(Cl)cc1Cl)C(=O)c1ccc(NS(C)(=O)=O)cc1
[ask] Lab note: record which item had the higher TREK-1 fold-activation, 1 or 2 . // caller expects the label of the chosen entry
[reply] 1
(1: 1.6 fold, 2: 1.0 fold)

---

- measured target: TREK-1^CG* (K2P2.1 (TREK-1) S131C) (Mus musculus, UniProt P97438, S146C)
- Construct: expressed in transfected cells; host or cells: Xenopus laevis oocytes injected with mRNA
- Sequence (P97438 1-411 isoform P97438-2 S131C): as the sequence (P97438 1-411 isoform P97438-2) above, with S131C counted along it
- protocol text: TEVC in Xenopus oocytes
- Format: cell-based
- cond: Fold-activation at 20 uM in oocytes
measurement name: TREK-1 GC activity class

{"smiles record": "CCOC(=O)CCCC1=CC(=O)N(c2ccc(C(=O)NCc3ccc(Cl)cc3Cl)cc2)C1=O", "measured target": "TREK-1^CG* (K2P2.1 (TREK-1) S131C) (Mus musculus, UniProt P97438, S146C)", "TREK-1 GC activity class": "++ (2.5-5 fold)"}
{"smiles record": "O=C(NCc1ccc(Cl)cc1Cl)c1ccc(N2CCS2(=O)=O)cc1", "measured target": "TREK-1^CG* (K2P2.1 (TREK-1) S131C) (Mus musculus, UniProt P97438, S146C)", "TREK-1 GC activity class": "+ (1.5-2.5 fold)"}
{"smiles record": "C=C1CC(=O)N(c2ccc(C(=O)NCc3ccc(Cl)cc3Cl)cc2)C1=O", "measured target": "TREK-1^CG* (K2P2.1 (TREK-1) S131C) (Mus musculus, UniProt P97438, S146C)", "TREK-1 GC activity class": "++ (2.5-5 fold)"}
{"smiles record": "O=C(NCc1ccc(Cl)cc1Cl)c1ccc(C(=O)N2CCS2(=O)=O)cc1", "measured target": "TREK-1^CG* (K2P2.1 (TREK-1) S131C) (Mus musculus, UniProt P97438, S146C)", "TREK-1 GC activity class": "+ (1.5-2.5 fold)"}
{"smiles record": "O=C(NCc1ccc(Cl)cc1Cl)c1ccc(N2C(=O)C=CC2=O)cc1", "measured target": "TREK-1^CG* (K2P2.1 (TREK-1) S131C) (Mus musculus, UniProt P97438, S146C)", "TREK-1 GC activity class": "+++ (>5 fold)"}
{"smiles record": "CC1=C(C)C(=O)N(c2ccc(C(=O)NCc3ccc(Cl)cc3Cl)cc2)C1=O", "measured target": "TREK-1^CG* (K2P2.1 (TREK-1) S131C) (Mus musculus, UniProt P97438, S146C)", "TREK-1 GC activity class": "++ (2.5-5 fold)"}
{"smiles record": "C#CCNC(=O)CCC(=C)C(=O)Nc1ccc(C(=O)NCc2ccc(Cl)cc2Cl)cc1", "measured target": "TREK-1^CG* (K2P2.1 (TREK-1) S131C) (Mus musculus, UniProt P97438, S146C)", "TREK-1 GC activity class": "+++ (>5 fold)"}
{"smiles record": "C#CCNC(=O)CCCC1=CC(=O)N(c2ccc(C(=O)NCc3ccc(Cl)cc3Cl)cc2)C1=O", "measured target": "TREK-1^CG* (K2P2.1 (TREK-1) S131C) (Mus musculus, UniProt P97438, S146C)", "TREK-1 GC activity class": "++ (2.5-5 fold)"}
{"smiles record": "C=CC(=O)Nc1ccc(C(=O)NCc2ccc(Cl)cc2Cl)cc1", "measured target": "TREK-1^CG* (K2P2.1 (TREK-1) S131C) (Mus musculus, UniProt P97438, S146C)", "TREK-1 GC activity class": "+++ (>5 fold)"}
{"smiles record": "CC1=CC(=O)N(c2ccc(C(=O)NCc3ccc(Cl)cc3Cl)cc2)C1=O", "measured target": "TREK-1^CG* (K2P2.1 (TREK-1) S131C) (Mus musculus, UniProt P97438, S146C)", "TREK-1 GC activity class": "+++ (>5 fold)"}

Proceed to the following item.
[ask] Look up TREK-1 GC activity class for this molecule: C=C(CCC(=O)O)C(=O)Nc1ccc(C(=O)NCc2ccc(Cl)cc2Cl)cc1
[reply] ++ (2.5-5 fold)

These entries and their values trace back to patent US20260098008A1.
